Tested on: barnyardgrass (Echinochloa crus-galli)
ASSAY_COMMENT: Test A postemergence, barnyardgrass
Assay type: in vivo
RECORDED_CONDITIONS: 125 g ai/ha, 0 to 100 scale (0 no effect, 100 complete control)
The following molecules are listed with their measured Plant response rating, Barnyardgrass values.
QUANTITY_MEASURED: Plant response rating, Barnyardgrass

[
  {
    "MOLECULE": "CC1(C)CC([S+]([O-])Cc2c(C(F)(F)F)nc3n(c2=O)CCS3)=NO1 (stereo not shown)",
    "EXPERIMENTAL_VALUE": 30
  },
  {
    "MOLECULE": "CC1(C)CC(S(=O)(=O)Cc2c(C(F)(F)F)nc3cnccn3c2=O)=NO1",
    "EXPERIMENTAL_VALUE": 30
  },
  {
    "MOLECULE": "CC1(C)CC(S(=O)(=O)Cc2c(C(F)(F)Cl)nc3n(c2=O)CCCC3)=NO1",
    "EXPERIMENTAL_VALUE": 60
  },
  {
    "MOLECULE": "Cn1c(=O)c(C[S+]([O-])C2=NOC(C)(C)C2)nc2ccccc21 (stereo not shown)",
    "EXPERIMENTAL_VALUE": 0
  },
  {
    "MOLECULE": "CC1(C)CC([S+]([O-])Cc2c(C(F)(F)Cl)nc3n(c2=O)CCC3)=NO1 (stereo not shown)",
    "EXPERIMENTAL_VALUE": 0
  },
  {
    "MOLECULE": "Cc1cc2nc(C(F)(F)F)c(CS(=O)(=O)C3=NOC(C)(C)C3)c(=O)n2o1",
    "EXPERIMENTAL_VALUE": 50
  },
  {
    "MOLECULE": "CC1(C)CC([S+]([O-])Cc2c(C(F)(F)F)nc3n(c2=O)CCC3)=NO1 (stereo not shown)",
    "EXPERIMENTAL_VALUE": 30
  },
  {
    "MOLECULE": "Cc1con2c(=O)c(C[S+]([O-])C3=NOC(C)(C)C3)c(C(F)(F)F)nc12 (stereo not shown)",
    "EXPERIMENTAL_VALUE": 0
  },
  {
    "MOLECULE": "CC1(C)CC(S(=O)(=O)Cc2c(C(F)(F)F)nc3n(c2=O)CCCCC3)=NO1",
    "EXPERIMENTAL_VALUE": 50
  },
  {
    "MOLECULE": "CC1(C)CC([S+]([O-])Cc2c(C(F)(F)Cl)nc3n(c2=O)CCCC3)=NO1 (stereo not shown)",
    "EXPERIMENTAL_VALUE": 10
  },
  {
    "MOLECULE": "Cc1con2c(=O)c(CS(=O)(=O)C3=NOC(C)(C)C3)c(C(F)(F)F)nc12",
    "EXPERIMENTAL_VALUE": 70
  },
  {
    "MOLECULE": "CCn1c(=O)c(CS(=O)(=O)C2=NOC(C)(C)C2)nc2ccccc21",
    "EXPERIMENTAL_VALUE": 30
  },
  {
    "MOLECULE": "CC1(C)CC([S+]([O-])Cc2c(C(F)(F)Cl)nc3n(c2=O)CCCS3)=NO1 (stereo not shown)",
    "EXPERIMENTAL_VALUE": 20
  }
]

---

Tested on: barnyardgrass (Echinochloa crus-galli)
ASSAY_COMMENT: Test A preemergence, barnyardgrass
Type: in vivo
RECORDED_CONDITIONS: 500 g ai/ha, 0 to 100 scale (0 no effect, 100 complete control)
Description: Seeds of barnyardgrass (Echinochloa crus-galli), large crabgrass (Digitaria sanguinalis), giant foxtail (Setaria faberi), morningglory (Ipomoea spp.), pigweed (Amaranthus retroflexus), velvetleaf (Abutilon theophrasti), wheat (Triticum aestivum), and corn (Zea mays) were planted into a blend of loam soil and sand and treated preemergence with a directed soil spray using test chemicals formulated in a non-phytotoxic solvent mixture which included a surfactant. […]
# Plant response rating, Barnyardgrass per entry

[
  {
    "COMPOUND": "CC1(C)CC(S(=O)(=O)Cc2c(C(F)(F)C(F)(F)F)nc3n(c2=O)CCCC3)=NO1 [Compound 21]",
    "Plant response rating, Barnyardgrass": 100
  },
  {
    "COMPOUND": "CC1(C)CC([S+]([O-])Cc2c(C(F)(F)F)nc3cnccn3c2=O)=NO1 (centres unmarked) [Compound 54]",
    "Plant response rating, Barnyardgrass": 0
  },
  {
    "COMPOUND": "CC1(C)CC([S+]([O-])Cc2c(C(F)(F)Cl)nc3n(c2=O)CCC3)=NO1 (centres unmarked) [Compound 17]",
    "Plant response rating, Barnyardgrass": 60
  },
  {
    "COMPOUND": "CCn1c(=O)c(CS(=O)(=O)C2=NOC(C)(C)C2)nc2cccnc21 [Compound 57]",
    "Plant response rating, Barnyardgrass": 40
  },
  {
    "COMPOUND": "CC1(C)CC(S(=O)(=O)Cc2c(C(F)(F)F)nc3ccccn3c2=O)=NO1 [Compound 7]",
    "Plant response rating, Barnyardgrass": 90
  }
]

---

Test system: wheat (Triticum aestivum)
ASSAY_COMMENT: Test A postemergence, wheat
Type: in vivo
RECORDED_CONDITIONS: 500 g ai/ha, 0 to 100 scale (0 no effect, 100 complete control)

[
  {
    "MOLECULE": "CC1(C)CC(S(=O)(=O)Cc2c(C(F)(F)F)nc3n(c2=O)CCC3)=NO1 [Compound 11]",
    "TARGET_ENTITY": "wheat (Triticum aestivum)",
    "Plant response rating, Wheat": 60
  },
  {
    "MOLECULE": "CC1(C)CC([S+]([O-])Cc2c(C(F)(F)Cl)nc3n(c2=O)CCCC3)=NO1 (centres unmarked) [Compound 32]",
    "TARGET_ENTITY": "wheat (Triticum aestivum)",
    "Plant response rating, Wheat": 0
  },
  {
    "MOLECULE": "Cn1c(=O)c(C[S+]([O-])C2=NOC(C)(C)C2)nc2ccccc21 (centres unmarked) [Compound 24]",
    "TARGET_ENTITY": "wheat (Triticum aestivum)",
    "Plant response rating, Wheat": 0
  },
  {
    "MOLECULE": "CC1(C)CC([S+]([O-])Cc2c(C(F)(F)F)nc3ccon3c2=O)=NO1 (centres unmarked) [Compound 43]",
    "TARGET_ENTITY": "wheat (Triticum aestivum)",
    "Plant response rating, Wheat": 0
  },
  {
    "MOLECULE": "CC1(C)CC([S+]([O-])Cc2c(C(F)(F)C(F)(F)F)nc3n(c2=O)CCS3)=NO1 (centres unmarked) [Compound 41]",
    "TARGET_ENTITY": "wheat (Triticum aestivum)",
    "Plant response rating, Wheat": 40
  },
  {
    "MOLECULE": "CC1(C)CC([S+]([O-])Cc2c(C(F)(F)C(F)(F)F)nc3n(c2=O)CCC3)=NO1 (centres unmarked) [Compound 27]",
    "TARGET_ENTITY": "wheat (Triticum aestivum)",
    "Plant response rating, Wheat": 50
  },
  {
    "MOLECULE": "CC1(C)CC(S(=O)(=O)Cc2c(C(F)(F)F)nc3n(c2=O)CCCCC3)=NO1 [Compound 33]",
    "TARGET_ENTITY": "wheat (Triticum aestivum)",
    "Plant response rating, Wheat": 40
  },
  {
    "MOLECULE": "Cc1cc2nc(C(F)(F)F)c(C[S+]([O-])C3=NOC(C)(C)C3)c(=O)n2o1 (centres unmarked) [Compound 50]",
    "TARGET_ENTITY": "wheat (Triticum aestivum)",
    "Plant response rating, Wheat": 0
  },
  {
    "MOLECULE": "CC1(C)CC(S(=O)(=O)Cc2c(C(F)(F)C(F)(F)F)nc3n(c2=O)CCC3)=NO1 [Compound 22]",
    "TARGET_ENTITY": "wheat (Triticum aestivum)",
    "Plant response rating, Wheat": 50
  },
  {
    "MOLECULE": "Cn1c(=O)c(CS(=O)(=O)C2=NOC(C)(C)C2)nc2ccccc21 [Compound 23]",
    "TARGET_ENTITY": "wheat (Triticum aestivum)",
    "Plant response rating, Wheat": 0
  },
  {
    "MOLECULE": "CC1(C)CC([S+]([O-])Cc2c(C(F)(F)F)nc3n(c2=O)CCCO3)=NO1 (centres unmarked) [Compound 3]",
    "TARGET_ENTITY": "wheat (Triticum aestivum)",
    "Plant response rating, Wheat": 0
  },
  {
    "MOLECULE": "CC1(C)CC(S(=O)(=O)Cc2c(C(F)(F)Cl)nc3n(c2=O)CCCC3)=NO1 [Compound 30]",
    "TARGET_ENTITY": "wheat (Triticum aestivum)",
    "Plant response rating, Wheat": 50
  },
  {
    "MOLECULE": "CC1(C)CC([S+]([O-])Cc2c(C(F)(F)C(F)(F)F)nc3n(c2=O)CCCS3)=NO1 (centres unmarked) [Compound 40]",
    "TARGET_ENTITY": "wheat (Triticum aestivum)",
    "Plant response rating, Wheat": 50
  },
  {
    "MOLECULE": "CC1(C)CC([S+]([O-])Cc2c(C(F)(F)F)nc3cnccn3c2=O)=NO1 (centres unmarked) [Compound 54]",
    "TARGET_ENTITY": "wheat (Triticum aestivum)",
    "Plant response rating, Wheat": 0
  },
  {
    "MOLECULE": "CC1(C)CC([S+]([O-])Cc2c(C(F)(F)F)nc3n(c2=O)CCC3)=NO1 (centres unmarked) [Compound 10]",
    "TARGET_ENTITY": "wheat (Triticum aestivum)",
    "Plant response rating, Wheat": 20
  },
  {
    "MOLECULE": "CC1(C)CC([S+]([O-])Cc2c(C(F)(F)Cl)nc3n(c2=O)CCCS3)=NO1 (centres unmarked) [Compound 36]",
    "TARGET_ENTITY": "wheat (Triticum aestivum)",
    "Plant response rating, Wheat": 20
  },
  {
    "MOLECULE": "CC1(C)CC([S+]([O-])Cc2c(C(F)(F)F)nc3cccnn3c2=O)=NO1 (centres unmarked) [Compound 46]",
    "TARGET_ENTITY": "wheat (Triticum aestivum)",
    "Plant response rating, Wheat": 0
  },
  {
    "MOLECULE": "CCn1c(=O)c(CS(=O)(=O)C2=NOC(C)(C)C2)nc2cccnc21 [Compound 57]",
    "TARGET_ENTITY": "wheat (Triticum aestivum)",
    "Plant response rating, Wheat": 0
  },
  {
    "MOLECULE": "CC1(C)CC(S(=O)(=O)Cc2c(C(F)(F)Cl)nc3n(c2=O)CCC3)=NO1 [Compound 18]",
    "TARGET_ENTITY": "wheat (Triticum aestivum)",
    "Plant response rating, Wheat": 60
  },
  {
    "MOLECULE": "CC1(C)CC(S(=O)(=O)Cc2c(C(F)(F)F)nc3ccsn3c2=O)=NO1 [Compound 16]",
    "TARGET_ENTITY": "wheat (Triticum aestivum)",
    "Plant response rating, Wheat": 50
  },
  {
    "MOLECULE": "CC1(C)CC(S(=O)(=O)Cc2c(C(F)(F)F)nc3n(c2=O)CCO3)=NO1 [Compound 2]",
    "TARGET_ENTITY": "wheat (Triticum aestivum)",
    "Plant response rating, Wheat": 60
  },
  {
    "MOLECULE": "CC1(C)CC(S(=O)(=O)Cc2c(C(F)(F)F)nc3n(c2=O)CCS3)=NO1 [Compound 6]",
    "TARGET_ENTITY": "wheat (Triticum aestivum)",
    "Plant response rating, Wheat": 30
  },
  {
    "MOLECULE": "CC1(C)CC(S(=O)(=O)Cc2c(C(F)(F)F)nc3ccccn3c2=O)=NO1 [Compound 7]",
    "TARGET_ENTITY": "wheat (Triticum aestivum)",
    "Plant response rating, Wheat": 0
  },
  {
    "MOLECULE": "CCn1c(=O)c(CS(=O)(=O)C2=NOC(C)(C)C2)nc2ccccc21 [Compound 28]",
    "TARGET_ENTITY": "wheat (Triticum aestivum)",
    "Plant response rating, Wheat": 0
  },
  {
    "MOLECULE": "CC1(C)CC([S+]([O-])Cc2c(C(F)(F)F)nc3n(c2=O)CCS3)=NO1 (centres unmarked) [Compound 5]",
    "TARGET_ENTITY": "wheat (Triticum aestivum)",
    "Plant response rating, Wheat": 0
  },
  {
    "MOLECULE": "CC1(C)CC([S+]([O-])Cc2c(C(F)(F)Cl)nc3n(c2=O)CCC3)=NO1 (centres unmarked) [Compound 17]",
    "TARGET_ENTITY": "wheat (Triticum aestivum)",
    "Plant response rating, Wheat": 20
  }
]
